Test system: SF-295 CNS
Assay: NCI-60 one-dose screen, 48 h (100 = growth as untreated, 0 = no growth, -100 = all killed)
Conditions: 10 µM
This is part of a sample that, as a whole, favours compounds with a hit. Of some 83,000 tested, about 20% had one in any assay.
Overview of recorded growth for various compounds
Field format: number, assumed %, no unit text.

For orientation, consider the following solved cases.
compound	parameter_measured	val
Oc1ccc(/C=N/N=C2c3ccccc3-c3ccccc32)c(O)c1	growth	101
CCCCC(CC)CN=C(N)NC(N)=NCCCCCCN=C(N)NC(N)=NCC(CC)CCCC (stereo unspecified)	growth	-84.8
CCCCCCCCCCCC[n+]1c(C)cc(N)c2ccccc21	growth	-1.01
O=C(O)c1ccc(-n2cc(CNc3ccc(Oc4ccccc4)cc3)c(-c3ccccc3)n2)cc1	growth	72.1
Clc1nc2ccc(Br)cc2cc1-c1nc2ccccc2[nH]1	growth	86.7
Cc1c(O)c(=O)ccn1C1CCC(CC2CCC(n3ccc(=O)c(O)c3C)CC2)CC1 (stereo unspecified)	growth	54.9

-- ask Would you mind telling me what growth value was observed for NC(=O)c1cccc(-n2ccc3cc(NC(=O)Nc4ccc(Cl)c(C(F)(F)F)c4)ccc32)n1 ?
-- reply 58.2

---

System: HT29 colon
Test: NCI-60 one-dose screen, 48 h (100 = growth as untreated, 0 = no growth, -100 = all killed)
Conditions: 10 µM
This is part of a sample that, as a whole, favours compounds with a hit. Of some 83,000 tested, about 20% had one in any assay.
Overview of recorded growth for various compounds
Field format: number, assumed %, no unit text.

For orientation, consider the following solved cases.
> print(dat)
                                   compound   val
1  CC(=O)C1CCC2C3CC=C4CC(SC(=N)N)CCC4(C)C3CCC12C (stereo unspecified)    11
2  COc1cc2cc(Oc3ccc(NC(=O)c4ccccc4)cc3)c(C)nc2cc1OC   104
3  CS(=O)(=O)c1nccc(-c2c(-c3cccc(OCCc4ccccc4)c3)nc3sccn23)n1  99.7
4                   Cc1c(Cl)cccc1NC(=O)CCCl  95.4
5          O=C1c2ccccc2C(=O)N1CCCCNc1ccccc1   110

-- ask Would you mind telling me what growth value was observed for Cc1ccc(-n2nnnc2N)c(C)c1 ?
-- reply 123

---

System: NCI-H522 lung
Experiment: NCI-60 one-dose screen, 48 h
Conditions: 10 µM
About 83,000 compounds went through this panel and 20% of them were active in at least one assay; those are over-represented in the sample as a whole. Active and inactive are the calls of the source. The calls were made as follows: active = growth percent below 10; inactive = the rest.
Respond with a class label; see True = active, False = inactive

Example results:
compound	classification
CC(=O)N[C@H](C(=O)N[C@@H](CCCNC(=N)N)C(=O)N[C@@H](CCCCN)C(=O)N[C@@H](CCCNC(=N)N)C(=O)N[C@]1(C)CCC/C=C\CCC[C@@](C)(C(=O)N[C@@H](CC(C)C)C(=O)N[C@@H](CC(C)C)C(=O)N[C@@H](CCC(N)=O)C(=O)N[C@@H](CCC(=O)O)C(=O)N[C@@H](CCCNC(=N)N)C(=O)N[C@@H](CCC(=O)O)C(=O)N[C@@H](CC(C)C)C(=O)N[C@H](C(=O)N[C@@H](CCC(=O)O)C(N)=O)C(C)C)NC(=O)[C@H](CCCNC(=N)N)NC(=O)[C@H](CC(C)C)NC1=O)C(C)C	False
COc1ccc(-c2n[nH]nc2-c2cc(OC)c3c(c2OC)OCO3)cc1	True
COc1ccc(C2CC(c3cccs3)=NN2c2ccc(S(N)(=O)=O)cc2)cc1 (centres undefined)	False

-- ask # lookup: test call for O=C(CCNC(=O)c1nc(-c2ccccc2)n(-c2ccc(Cl)cc2)n1)NO
-- reply False

-- ask Also, CCOC(=O)c1sc2ncnc(Nc3ccc4c(cnn4C(=O)Nc4ccc(C)c(Cl)c4)c3)c2c1C please.
-- reply False
